I'd be grateful if you could share measured normalized growth for these entries.
protocol.description: chemical genetic growth profiling, strain panel (AID 1159580);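 note: tested at 20 µM; growth read once vehicle control cultures reached saturation at 30 °C; 1 = growth at the plate median or of vehicle wells; lower values mean less growth of the strain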
experimental.parameters: S. cerevisiae deletion strains, growth OD, locus YAL021C, strain ccr4, stronger effect = lower value
Screen size: about 5,500 compounds; about 2,000 (36%) were called active. Inconclusive results (about 18%) are left out. This is one part of the list.
Respond numerically, and do not add a unit to the figure.

q: Name the reported normalized growth value associated with the molecule OC(CCN1CCCCC1)(c1ccccc1)C1CC2C=CC1C2 (centres undefined)
a: 1.01

q: Quick one: CCC(C)C(=O)O[C@H]1[C@H](O)C2C(CN3CC(C)CCC3[C@@]2(C)O)C2C[C@]34O[C@]5(O)C(OC(=O)C(C)(O)CC)CC[C@@]3(C)C5C(OC(C)=O)[C@@H](OC(C)=O)C4[C@@]21O (some centres undefined)
a: 1.01

q: Record: "O=C1C(O)=C(O)C(=O)C(O)=C1O"
a: 1

q: Next: "Nc1ccc(S(=O)(=O)c2ccc(N)cc2)cc1"
a: 0.99
